Provenance of the data: patent US20220119522A1

- target_of_assay: T1, human TREM2 truncated stalk peptide (aa 149-163) (human, also: biotinylated (site not given here))
- T1 construct: also called Human TREM2 peptide (aa 149-163); truncated stalk peptide containing the ADAM10/17 cleavage site
- T1 peptide: SFEDAHVEHSISRSL
- method_summary: ELISA on biotinylated peptide captured by streptavidin; A450 normalised to isotype control
No end group written: not given here.
observation_type: fold over background (A450)
Show the value, then the unit it is measured in.

Consider the worked cases shown below.
- binder: "CL0020162 (antibody, V domains shown, also called Clone CL0020162) VH: QIQLVQSGPELKKPGESLKISCKASGYTFTDYAMQWVKQAPEKGLQYMGWINTQTGKPTYADDFKERFVFSLETSATTAYLQINNLKNEDMATYFCVRSYNNYENWFAYWGQGTLVTVSS VL: DIVMTQSPSSLAVSAGETVTINCKSSQSLLYSGNQKNYLAWYQQKPGQSPKVLIYWASTRQFGVPDRFIGSGSGTDFTLTISSVQAEDLAIYYCQQYYNSPITFGSGTKLEIK"
  value: "1.3 fold"
- binder: "CL0020107 (antibody, V domains shown, also called Clone CL0020107) VH: QVQLQQPGAELVKPGASVKMSCRASGYTFTNYWISWVKQRPGQGLEWIGDIYPHSTSTNYNERFRSKATLTVDKSSTTAYMQLSSLTSEDSAVYYCAREGFGISAWGQGTTLTVSS VL: QIVLTQSPAIMSASPGEKVTITCSATSSVSYMHWFQQKPGTSPKLWIYSTSNLASGVPARFSGSGSGTSHSLTISRMEAEDAATYYCQQRSSYPLTFGSGTKLELK"
  value: "1.4 fold"
- binder: "CL0020313 (antibody, V domains shown, also called Clone CL0020313) VH: QVQLKQSGPGLLQPSQSLSITCTVSGFSLTSYGVHWVRQSPGKGLEWLGVIWSGGITLYNAAFMSRLSITKDNSKSQVFFKMNSLQADDTAIYYCAKVGYGSSSDYWGQGTTLTVSS VL: DVLMTQSPLSLPVSLGDQASFSCRSSQSIVHSNGNTYLEWYLQKPGQSPKLLIYKVSNRFSGVPDRFSGSGSGTDFTLKISRVEAEDLGVYYCFQGSHVPFTFGSGTKLEIK"
  value: "1.2 fold"

Enquiry: Which fold over background (A450) value belongs to CL0020109 (antibody, V domains shown, also called Clone CL0020109) VH: EVQLQQSGPVLVKPGASLKMSCRASGYTFTDYYVHWVKQSHGKSLEWIGLINPYTGTTSYNQRFKGKATLTVDKSSSTAYMEVNSLTSEDSAVYYCARSRVYYGSSLFAFWGQGTLVTVSA VL: DIVMTQSPSSLSVSAGEKVTMSCKSSQSLLNSGNQKNYLAWYQQKPGQPPKLLIYGASTRESGVPDRFTGSGSGTDFTLTISSVQAEDLAVYYCQNDHSYPYTFGGGTKLEIK ?
Return: 1.5 fold
